These data points were gathered from PubChem BioAssay AID1159580.

assayComment: chemical genetic growth profiling, strain panel (AID 1159580);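 further: tested at 20 µM; growth read once vehicle control cultures reached saturation at 30 °C; 1 = growth at the plate median or of vehicle wells; lower values mean less growth of the strain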
settings: S. cerevisiae deletion strains, growth OD, locus YJL168C, strain set2, stronger effect = lower value
About 2,000 (36%) of roughly 5,500 compounds were called active. Not shown: some 18% with an inconclusive outcome. Some of the results follow.
parameter: normalized growth
I'd appreciate a reply containing only the number, no unit.

| compound | parameter | assayResult |
| --- | --- | --- |
| O=[N+]([O-])c1cc([As](=O)(O)O)ccc1O | normalized growth | 0.453 |
| CNc1ccccc1C(=O)O | normalized growth | 0.996 |

May I ask what normalized growth has been recorded for C1CCN2C[C@@H]3C[C@H](CN4CCCC[C@@H]34)[C@H]2C1 ?
1

And the next one, CCCc1occc(=O)c1/C=C/O ?
0.987

And the next one, C=CC(C)(O)CC/C=C(\C)CCC=C(C)C (configuration not stated) ?
1.01
